Target: T1, rat serum albumin (rat, UniProt P02770 25-608)
T1 construct: also called RSA
Assay: SPR, single cycle kinetics, pH 5.5
pKd: −log10 of the molar value.
Form field: pKd (one value per entry).
READOUT_NAME: pKd

M79 sdAb (VHH, also called M79 VHH) VHH: QVKLEESGGGLVQAGGSLKLSCAASGSTFSSSSVGWYRQAPGQQRELVAAITSGGSTNTADSVKGRFTMSRDNAKNTVYLQMRDLKPEDTAVYYCNVAGRNWVPISRYSPGPYWGQGTQVTVSS; 8.15
M79-H5 (VHH) VHH: QVQLVESGGGLVQPGGSLRLSCAASGSTFSSSSVGWYRQAPGQQRELVAAITSGGSTNTADSVKGRFTISRDNAKNTVYLQMNSLRAEDTAVYYCNVAGRNWVPISRYSPGPYWGQGTLVTVSS; 8.18
M79-H3 (VHH) VHH: EVQLVESGGGLVQPGGSLRLSCAASGSTFSSSSVGWYRQAPGKQRELVSAITSGGSTNTADSVKGRFTISRDNSKNTLYLQMNSLRAEDTAVYYCNVAGRNWVPISRYSPGPYWGQGTLVTVSS; 7.91
